Tested on: bovine cardiac myofibrils
TEST: Myofibril assay: PK/LDH-coupled steady-state ATPase activity of skinned bovine cardiac myofibrils
Format: biochemical
SETTINGS: Ca2+ activating to 75% of maximal rate
Measured CDMF75 IC15 of individual entries

# MOLECULE, CDMF75 IC15
rows = [
    ("NC(=O)C12CC([C@@H]3C(=O)N(c4ncc(Cl)cc4F)CC(=O)N3Cc3ccc(Cl)cc3)(C1)C2 [Compound 837]", ">39 µM"),
    ("COCCNC(=O)N1CCC2(C1)C(=O)N(C(C)C)CC(=O)N2Cc1ccc(Cl)cc1 (stereo not drawn) [Compound 387]", ">39 µM"),
]

Next:
Query: For the molecule Cc1ccc(CN2C(=O)CN(c3ncc(Cl)cc3F)C(=O)[C@H]2C23CC(C(N)=O)(C2)C3)cc1 [Compound 824] , give its measured CDMF75 IC15 value.
Result: >39 µM

###

System: bovine cardiac myofibrils
TEST: Myofibril assay: PK/LDH-coupled steady-state ATPase activity of skinned bovine cardiac myofibrils
Assay type: biochemical
SETTINGS: Ca2+ activating to 75% of maximal rate
PROPERTY NAME: CDMF75 IC15 (µM)

# COMPOUND, CDMF75 IC15 / µM
measured = [
    ("CC(C)N1CC(=O)N(Cc2ccc(Cl)cc2)C2(CCN(c3ccccn3)C2)C1=O (stereo not drawn) [Compound 128]", 0.8),
]

1: CC(C)N1CC(=O)N(Cc2ccc(C(F)(F)F)cc2)C2(CCN(C(=O)NC3CCC3)C2)C1=O (stereo not drawn) [Compound 1]
2: CNC(=O)N1CC2(C1)C(=O)N([C@H]1CC[C@@H](C#N)C1)CC(=O)N2Cc1ccc(C(F)(F)F)cc1 [Compound 321]
Query: # return whichever of 1 and 2 has the smaller CDMF75 IC15 Answer by stating the label of the chosen item.
Result: 1

###

Test system: bovine cardiac myofibrils
TEST: Myofibril assay: PK/LDH-coupled steady-state ATPase activity of skinned bovine cardiac myofibrils
Assay type: biochemical
SETTINGS: Ca2+ activating to 75% of maximal rate
PROPERTY NAME: CDMF75 IC15 (µM)

# COMPOUND, STUDY SYSTEM, UNIT ABBREV, CDMF75 IC15
records = [
    ("O=C1C(C2CCOCC2)N(Cc2ccc(C(F)(F)F)cc2)C(=O)CN1c1ncc(Cl)cc1F (stereo not drawn) [Compound 688]", "bovine cardiac myofibrils", "µM", 3.7),
    ("CC(=O)N1CC2(C1)C(=O)N(c1ncc(C#N)cc1C)CC(=O)N2Cc1ccc(C(F)(F)F)cc1 [Compound 529]", "bovine cardiac myofibrils", "µM", 5.5),
    ("NC(=O)[C@H]1C[C@]2(C1)C(=O)N(c1ncc(Cl)cc1F)CC(=O)N2Cc1ccc(C(F)F)cc1 (single isomer, unassigned) [Compound 875B]", "bovine cardiac myofibrils", "µM", 3.2),
    ("CC(C)N1CC(=O)N(Cc2ccc(Cl)cc2)C(c2ccc(C(F)(F)F)cc2)C1=O (stereo not drawn) [Compound 314]", "bovine cardiac myofibrils", "µM", 8.4),
    ("CC(C)N1CC(=O)N(Cc2ccc(C(F)(F)F)cc2)C2(CCN(C(=O)Nc3cnn(C)c3)C2)C1=O (stereo not drawn) [Compound 114]", "bovine cardiac myofibrils", "µM", 7.9),
]

I: N#Cc1ccc(N2CC(=O)N(Cc3ccc(C(F)(F)F)cc3)C3(CN(C(N)=O)C3)C2=O)c(F)c1 [Compound 204]
II: CNC(=O)N1CCC2(C1)C(=O)N(c1ccc(C#N)cc1)CC(=O)N2Cc1ccc(Cl)cc1 (stereo not drawn) [Compound 185]
Query: # return whichever of I and II has the smaller CDMF75 IC15 Answer by stating the label of the chosen item.
Result: I
(I: 0.2 µM, II: 3.2 µM)

P: CNC(=O)N1CC2(C1)C(=O)N(c1ccc(C3CC3)cc1)CC(=O)N2Cc1ccc(C(F)(F)F)cc1 [Compound 158]
Q: O=C1C(C23CC(O)(C2)C3)N(Cc2ccc(C(F)(F)F)cc2)C(=O)CN1c1ncc(Cl)cc1F (stereo not drawn) [Compound 838]
Query: Thinking about recorded CDMF75 IC15 values, which is higher, P or Q ? Answer by stating the label of the chosen item.
Result: P
